Reported % COX-1 inhibitory activity values for the following compounds.
TESTED_SYSTEM: cyclooxygenase-1 (COX-1) (Rattus norvegicus)
Construct: Aliquots of heparinized blood (500 μl) were preincubated with 100 μM concentration of the tested compounds; from tissue; host or cells: rat whole blood (heparinized, from the abdominal aorta)
Sequence (Q63921 27-602): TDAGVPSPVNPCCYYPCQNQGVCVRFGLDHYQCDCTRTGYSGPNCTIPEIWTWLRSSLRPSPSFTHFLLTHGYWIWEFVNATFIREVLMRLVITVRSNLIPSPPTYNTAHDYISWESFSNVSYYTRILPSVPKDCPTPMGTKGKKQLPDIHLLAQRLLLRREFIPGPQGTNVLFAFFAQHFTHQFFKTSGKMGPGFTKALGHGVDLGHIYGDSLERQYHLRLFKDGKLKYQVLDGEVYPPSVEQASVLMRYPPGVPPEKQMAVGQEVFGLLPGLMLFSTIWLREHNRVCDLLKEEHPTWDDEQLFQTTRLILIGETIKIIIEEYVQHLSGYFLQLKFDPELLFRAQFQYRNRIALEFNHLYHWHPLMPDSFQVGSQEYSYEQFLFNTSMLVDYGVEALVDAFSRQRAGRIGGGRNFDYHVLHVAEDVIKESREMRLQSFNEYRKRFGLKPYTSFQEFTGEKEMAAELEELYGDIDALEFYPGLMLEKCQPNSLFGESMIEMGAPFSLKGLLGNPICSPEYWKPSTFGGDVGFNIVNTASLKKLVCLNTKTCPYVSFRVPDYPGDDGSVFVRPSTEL
RUN_DESCRIPTION: Inhibition of cyclooxygenase-1 (COX-1) in rat whole blood (TxB2 production)
Format: cell-based
CONDITIONS_USED: 100 μM; rat whole blood, calcium ionophore A23187-induced TxB2 production
TEST_READOUT: % COX-1 inhibitory activity (%)

>  <COMPOUND_STRING>
O=C(O)C1(c2ccc(-c3ccc(-c4ccc(O)cc4)cc3F)c(F)c2)CC1

>  <VALUE_MEASURED>
1.1

$$$$
>  <COMPOUND_STRING>
O=C(O)C1(c2ccc(-c3ccc(-c4ccc(O)cc4)c(F)c3)c(F)c2)CC1

>  <VALUE_MEASURED>
0.0

$$$$
>  <COMPOUND_STRING>
O=C(O)C1(c2ccc(-c3ccc(-c4ccc(F)cc4)cc3F)c(F)c2)CC1

>  <VALUE_MEASURED>
1.9

$$$$
>  <COMPOUND_STRING>
C#CCOc1ccc(-c2ccc(C3(C(=O)O)CC3)cc2F)cc1

>  <VALUE_MEASURED>
3.6

$$$$
